- protocol notes: Cytotoxicity against human RPTEC after 24 hrs by LDH assay
- Type: cell-based
- recorded conditions: RPTEC cells
Bridge positions count the residues as written; N and C are the ends. Square brackets hold non-standard residues; d marks the D form. Peptide text beside a SMILES is read from it. * marks the point of attachment. Decanoyl(3R-OH) = CCCCCCC[C@@H](O)CC(=O)*; dDab = NCC[C@@H](N)C(=O)O; Dab = NCC[C@H](N)C(=O)O
Attribute: CC50 at 24 h
readout label: CC50 at 24 h (µM)

- CCCCCCC[C@@H](O)CC(=O)N[C@H](CCN)C(=O)N[C@@H](CCN)C(=O)N[C@@H](CCN)C(=O)N[C@H](Cc1ccccc1)C(=O)N[C@@H](CC(C)C)C(=O)N[C@@H](CCN)C(=O)N[C@@H](CCN)C(=O)N[C@@H](CC(C)C)C(=O)O: 71
- CCCCCCC[C@@H](O)CC(=O)N[C@H](CCN)C(=O)N[C@H]1CCNC(=O)[C@H](CC(C)C)NC(=O)[C@H](CCN)NC(=O)[C@H](CCN)NC(=O)[C@H](CC(C)C)NC(=O)[C@@H](Cc2ccccc2)NC(=O)[C@H](CCN)NC1=O ({Decanoyl(3R-OH)}-[dDab][Dab][Dab][dF]L[Dab][Dab]L; lactam 2-C): 39
